System: H446
Assay: Colony formation assay (CFA)
Format: cell-based
Settings: Homo sapiens, NCI-H446; H446, 24 hours exposure, colonies after 14-21 days; read-out: (−)-trans IC50 CFA
valueType: pIC50
Notebook: values listed as pIC50 are -log10 of the concentration (mol/L).

# input What value of measured pIC50 is listed for O=C1NC(=O)C(c2cn3c4c(cccc24)CCC3)C1c1c[nH]c2ccccc12 (single isomer, unassigned; (-)) ?
# output 5.40

----------
Target: UniProt P08581
Sequence (P08581 25-1390): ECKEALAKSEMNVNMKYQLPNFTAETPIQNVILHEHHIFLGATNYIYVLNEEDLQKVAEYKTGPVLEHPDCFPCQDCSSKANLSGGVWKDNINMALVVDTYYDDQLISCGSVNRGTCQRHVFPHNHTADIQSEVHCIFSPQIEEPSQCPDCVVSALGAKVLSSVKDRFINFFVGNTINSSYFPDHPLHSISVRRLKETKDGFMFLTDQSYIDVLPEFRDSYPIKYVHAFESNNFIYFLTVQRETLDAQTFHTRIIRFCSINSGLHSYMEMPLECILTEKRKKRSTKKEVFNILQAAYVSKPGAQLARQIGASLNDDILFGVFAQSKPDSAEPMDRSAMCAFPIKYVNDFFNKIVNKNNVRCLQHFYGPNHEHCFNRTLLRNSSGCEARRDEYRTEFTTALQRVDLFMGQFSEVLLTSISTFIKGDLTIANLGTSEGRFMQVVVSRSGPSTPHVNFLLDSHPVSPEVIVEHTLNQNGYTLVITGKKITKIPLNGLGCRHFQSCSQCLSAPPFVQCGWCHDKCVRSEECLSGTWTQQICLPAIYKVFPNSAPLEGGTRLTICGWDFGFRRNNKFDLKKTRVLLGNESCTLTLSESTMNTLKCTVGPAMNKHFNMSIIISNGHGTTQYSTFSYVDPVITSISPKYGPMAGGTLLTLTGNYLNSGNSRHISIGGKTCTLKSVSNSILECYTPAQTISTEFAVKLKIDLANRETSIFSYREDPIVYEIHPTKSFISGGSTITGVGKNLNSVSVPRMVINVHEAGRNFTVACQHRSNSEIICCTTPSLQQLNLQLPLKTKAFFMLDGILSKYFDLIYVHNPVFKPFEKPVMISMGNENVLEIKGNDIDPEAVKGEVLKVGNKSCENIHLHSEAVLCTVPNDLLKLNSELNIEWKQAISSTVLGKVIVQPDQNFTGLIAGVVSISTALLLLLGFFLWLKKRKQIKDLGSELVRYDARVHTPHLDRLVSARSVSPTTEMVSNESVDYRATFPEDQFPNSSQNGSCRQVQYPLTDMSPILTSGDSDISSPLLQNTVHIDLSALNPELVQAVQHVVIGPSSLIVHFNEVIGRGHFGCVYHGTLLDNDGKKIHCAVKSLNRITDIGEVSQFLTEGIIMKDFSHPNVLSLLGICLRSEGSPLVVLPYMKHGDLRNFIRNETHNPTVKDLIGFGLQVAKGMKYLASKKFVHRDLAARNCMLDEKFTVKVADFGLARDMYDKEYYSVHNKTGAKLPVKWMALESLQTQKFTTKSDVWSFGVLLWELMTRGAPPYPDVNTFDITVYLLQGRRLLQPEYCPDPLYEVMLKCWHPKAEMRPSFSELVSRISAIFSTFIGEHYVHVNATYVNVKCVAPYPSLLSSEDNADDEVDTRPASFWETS
Assay: c-Met inhibition, phospho-c-Met blot with densitometry (Example 83)
Assay type: cell-based
Design: whole cell extracts were prepared; endogenous in cells; host or cells: MCF-7, MDA-MB-231, DLD1, HT29, PACA2, PANC-1, NCI-H441
Conditions: MCF-7 cells, 24 hours treatment; read-out: (−)-trans IC50 c-Met Inhibition
valueType: IC50 (µM)
Please state the figure in µM; there is no need to write the unit.

# input What value of measured IC50 is listed for O=C1NC(=O)C(c2cn3c4c(cccc24)CCC3)C1c1c[nH]c2ccccc12 (single isomer, unassigned; (-)) ?
# output 0.1
